SUBJECT OF TEST: Kras and SOS1 (biotin-tagged human Kras loaded with GDP, His-tagged human SOS1) (Homo sapiens, UniProt P01116, G12D)
Construct: made in house; host or cells: E. coli (stated for Kras only)
Sequence (P01116 1-188 isoform P01116-2 G12D): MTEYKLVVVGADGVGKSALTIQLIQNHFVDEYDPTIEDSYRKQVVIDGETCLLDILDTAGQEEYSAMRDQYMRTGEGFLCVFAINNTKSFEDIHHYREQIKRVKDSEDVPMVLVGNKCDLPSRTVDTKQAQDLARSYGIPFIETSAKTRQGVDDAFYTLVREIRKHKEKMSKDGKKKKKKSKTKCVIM
ASSAY EXPLANATION: Protein-protein interaction inhibition between Kras and SOS1 (KrasGl2D-SOS PPI) using AlphaScreen
Assay type: binding
CONDITIONS: AlphaScreen; biotin-tagged human Kras loaded with GDP, His-tagged human SOS1; read-out: KRAS G12D-SOS PPI IC50
Positions of bridges follow the written chain, without caps; N, C: chain ends. Non-standard residues stand in square brackets, D forms with d. Residues, ends and D or L forms follow the SMILES beside them. *: point of attachment. hPhe(3-Cl-4-CF3) = N[C@@H](CCc1ccc(C(F)(F)F)c(Cl)c1)C(=O)O; NMePhe(4-Me) = CN[C@@H](Cc1ccc(C)cc1)C(=O)O; NMeGly(cPent) = CN[C@H](C(=O)O)C1CCCC1; NMeCha = CN[C@@H](CC1CCCCC1)C(=O)O; NMeChg = CN[C@H](C(=O)O)C1CCCCC1; NMeD = CN[C@@H](CC(=O)O)C(=O)O; NMeL = CN[C@@H](CC(C)C)C(=O)O; Oxazolidin(3-yl) = C1CN(*)CO1; NMeNva = CCC[C@H](NC)C(=O)O; NMeV = CN[C@H](C(=O)O)C(C)C; d(β3hA) = C[C@@H](N)CC(=O)O; dNMeS = CN[C@H](CO)C(=O)O; NMeA = CN[C@@H](C)C(=O)O; Piperidide = C1CCN(*)CC1; Ac5c = NC1(C(=O)O)CCCC1; Aze = O=C(O)[C@@H]1CCN1; Isopentyl = CC(C)CC*; Sar = CNCC(=O)O
Cut-off 8 nM on IC50: below means 1, at or above means 0.

CC[C@H](C)[C@@H]1NC(=O)[C@H](CC(C)C)N(C)C(=O)C[C@@H](C(=O)N2CCOC2)N(C)C(=O)[C@H](C2CCCCC2)N(C)C(=O)C2(CCCC2)NC(=O)[C@@H]2CCCN2C(=O)[C@H](CCc2ccc(C(F)(F)F)c(Cl)c2)NC(=O)CN(C)C(=O)[C@H](CC2CCCCC2)N(C)C(=O)CN(C)C(=O)CN(C)C1=O [Compound 1180] ([NMeL]I[Sar][Sar][NMeCha][Sar][hPhe(3-Cl-4-CF3)]P[Ac5c][NMeChg][NMeD]-{Oxazolidin(3-yl)}; lactam N-11); 1
CC[C@H](C)[C@@H]1NC(=O)[C@H](CC(C)C)N(C)C(=O)C[C@@H](C(=O)N2CCCCC2)N(C)C(=O)[C@H](C(C)C)N(C)C(=O)C2(CCCC2)NC(=O)[C@@H](COCCC(C)C)N(C)C(=O)[C@H](CCc2ccc(C(F)(F)F)c(Cl)c2)NC(=O)CN(C)C(=O)[C@H](CC2CCCCC2)N(C)C(=O)[C@@H]2CCN2C(=O)[C@H](C)N(C)C1=O [Compound 1437] ([NMeL]I[NMeA][Aze][NMeCha][Sar][hPhe(3-Cl-4-CF3)][dNMeS](Isopentyl)[Ac5c][NMeV][NMeD]-Piperidide; lactam N-11); 0
CC[C@H](C)[C@@H]1NC(=O)[C@H](CC(C)C)N(C)C(=O)C[C@@H](C)NC(=O)[C@H](C2CCCC2)N(C)C(=O)C2(CCCC2)NC(=O)[C@@H]2CCCN2C(=O)[C@H](CCc2ccc(C(F)(F)F)c(Cl)c2)NC(=O)[C@H]2CCCN2C(=O)[C@H](Cc2ccc(C)cc2)N(C)C(=O)[C@@H]2CCN2C(=O)CN(C)C1=O [Compound 1488] (cyclo([Ac5c][NMeGly(cPent)][d(β3hA)][NMeL]I[Sar][Aze][NMePhe(4-Me)][dP][hPhe(3-Cl-4-CF3)]P)); 0
CCC[C@H]1C(=O)N[C@@H]([C@@H](C)CC)C(=O)N(C)CC(=O)N(C)CC(=O)N(C)[C@@H](CC2CCCCC2)C(=O)N(C)CC(=O)N[C@@H](CCc2ccc(C(F)(F)F)c(Cl)c2)C(=O)N2CCC[C@H]2C(=O)NC2(CCCC2)C(=O)N(C)[C@@H](C2CCCCC2)C(=O)N(C)[C@H](C(=O)N2CCCCC2)CC(=O)N1C [Compound 778] ([NMeNva]I[Sar][Sar][NMeCha][Sar][hPhe(3-Cl-4-CF3)]P[Ac5c][NMeChg][NMeD]-Piperidide; lactam N-11); 1
